Where do the numbers come from? From patent US20090012103A1.

assay-system: wild-type human cardiac sodium channel, hNav1.5 (Homo sapiens)
test-details: Late INa screening assay (late sodium current, PatchXpress whole cell patch clamp)
Type: cell-based
conditions: compound at 10 μM; read-out: Late INa % blk
Catalogue of inhibition at 10 µM values
experimental-endpoint: inhibition at 10 µM (%)

>>> numeric_value("CCOC(=O)C1=C(C)Nc2nnnn2C1c1sccc1-c1cccc(F)c1 (stereo not drawn)")
84.2
>>> numeric_value("CCOC(=O)C1=C(C)Nc2nnnn2C1c1ccc(N(C)C)cc1[N+](=O)[O-] (stereo not drawn)")
2.5
>>> numeric_value("CC1=C(C(=O)NCCCCc2ccccc2)C(c2ccsc2)C2=C(CCCC2=O)N1 (stereo not drawn)")
32
>>> numeric_value("CC1=C(C(=O)OCc2ccccc2)C(c2cccc3cccnc23)n2nnnc2N1 (stereo not drawn)")
34.4
>>> numeric_value("CC1=C(C(=O)OCc2ccc(I)cc2)C(c2cccc3ccccc23)n2nnnc2N1 (stereo not drawn)")
52.1
>>> numeric_value("CCOC(=O)C1=C(C)NC(C)=C(C(=O)OCC)C1c1cc2ccccc2s1")
85
>>> numeric_value("CC1=C(C(=O)N2CCN(c3ccc(Cl)cc3)CC2)C(c2ccsc2)C2=C(CCCC2=O)N1 (stereo not drawn)")
-10
>>> numeric_value("CC1=C(C(=O)NCc2ccccc2)C(c2ccc3ccccc3c2)n2nnnc2N1 (stereo not drawn)")
14.3
>>> numeric_value("CCOC(=O)C1=C(C)Nc2[nH]ncc2C1c1ccccc1-c1cccc(C(C)=O)c1 (stereo not drawn)")
18.4

---

Catalogue of inhibition at 10 µM values
assay-system: wild-type human cardiac sodium channel, hNav1.5 (Homo sapiens, UniProt Q14524)
Sequence (Q14524 whole entry): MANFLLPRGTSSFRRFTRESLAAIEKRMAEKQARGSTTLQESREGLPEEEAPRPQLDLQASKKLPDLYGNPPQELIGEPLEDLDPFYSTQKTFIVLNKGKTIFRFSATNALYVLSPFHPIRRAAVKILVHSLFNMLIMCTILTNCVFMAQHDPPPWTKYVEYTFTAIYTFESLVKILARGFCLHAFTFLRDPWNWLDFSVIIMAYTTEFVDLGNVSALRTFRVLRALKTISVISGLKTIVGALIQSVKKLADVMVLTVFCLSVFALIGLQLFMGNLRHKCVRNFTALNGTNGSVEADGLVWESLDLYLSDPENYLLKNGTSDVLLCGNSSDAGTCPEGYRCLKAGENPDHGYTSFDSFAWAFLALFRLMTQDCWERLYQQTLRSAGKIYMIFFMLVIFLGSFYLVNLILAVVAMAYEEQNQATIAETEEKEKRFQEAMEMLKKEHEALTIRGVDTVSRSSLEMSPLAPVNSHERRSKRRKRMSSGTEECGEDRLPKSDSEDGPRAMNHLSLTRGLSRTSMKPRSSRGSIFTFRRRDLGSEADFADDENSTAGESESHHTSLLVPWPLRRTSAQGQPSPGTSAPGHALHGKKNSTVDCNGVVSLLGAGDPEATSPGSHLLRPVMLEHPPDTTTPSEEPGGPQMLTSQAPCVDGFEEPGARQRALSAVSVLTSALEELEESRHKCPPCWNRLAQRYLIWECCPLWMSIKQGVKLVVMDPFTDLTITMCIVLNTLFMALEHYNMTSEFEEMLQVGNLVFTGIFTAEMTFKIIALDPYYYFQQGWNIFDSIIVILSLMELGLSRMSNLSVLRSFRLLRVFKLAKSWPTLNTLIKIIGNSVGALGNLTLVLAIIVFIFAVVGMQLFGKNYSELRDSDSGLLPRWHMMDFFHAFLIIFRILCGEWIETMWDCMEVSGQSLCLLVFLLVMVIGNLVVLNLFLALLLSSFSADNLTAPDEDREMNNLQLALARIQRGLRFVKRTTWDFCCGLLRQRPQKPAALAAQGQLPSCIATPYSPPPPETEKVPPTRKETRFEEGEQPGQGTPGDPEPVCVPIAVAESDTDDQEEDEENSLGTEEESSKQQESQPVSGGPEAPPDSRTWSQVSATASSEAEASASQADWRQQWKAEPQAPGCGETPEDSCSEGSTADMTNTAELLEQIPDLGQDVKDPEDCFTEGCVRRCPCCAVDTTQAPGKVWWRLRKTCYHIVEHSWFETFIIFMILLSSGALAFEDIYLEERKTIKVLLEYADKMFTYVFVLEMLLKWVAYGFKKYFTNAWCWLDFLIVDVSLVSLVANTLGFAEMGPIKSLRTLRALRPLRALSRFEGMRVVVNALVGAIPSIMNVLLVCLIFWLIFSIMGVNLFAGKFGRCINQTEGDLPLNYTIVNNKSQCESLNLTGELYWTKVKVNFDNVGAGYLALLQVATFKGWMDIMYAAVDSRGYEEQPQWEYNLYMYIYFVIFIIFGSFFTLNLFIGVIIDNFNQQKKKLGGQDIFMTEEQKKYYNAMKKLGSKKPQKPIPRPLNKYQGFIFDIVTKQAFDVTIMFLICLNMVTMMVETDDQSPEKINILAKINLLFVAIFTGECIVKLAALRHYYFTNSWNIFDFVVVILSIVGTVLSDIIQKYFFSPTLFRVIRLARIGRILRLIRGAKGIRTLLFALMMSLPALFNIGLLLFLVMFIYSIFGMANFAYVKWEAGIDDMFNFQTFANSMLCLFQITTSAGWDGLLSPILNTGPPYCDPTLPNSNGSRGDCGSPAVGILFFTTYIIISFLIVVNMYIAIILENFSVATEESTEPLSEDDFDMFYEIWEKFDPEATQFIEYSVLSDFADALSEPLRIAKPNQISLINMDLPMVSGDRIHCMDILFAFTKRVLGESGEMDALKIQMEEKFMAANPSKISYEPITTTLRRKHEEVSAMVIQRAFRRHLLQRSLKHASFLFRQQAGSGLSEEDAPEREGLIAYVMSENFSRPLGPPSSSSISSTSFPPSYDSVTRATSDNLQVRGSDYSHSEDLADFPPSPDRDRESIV
test-details: Late INa screening assay (late sodium current, PatchXpress whole cell patch clamp)
Assay type: cell-based
conditions: compound at 10 μM; read-out: Late INa % blk
experimental-endpoint: inhibition at 10 µM

>>> result("CC1=C(C(=O)OCc2ccccc2)C(c2cccc3ccccc23)n2nnnc2N1CC#N (centres unmarked)")
"30.2%"
>>> result("CC1=C(C(=O)OCc2ccccc2)C(c2cccc3ccccc23)c2c(-c3cccs3)n[nH]c2N1 (centres unmarked)")
"-4.3%"
>>> result("CC1=C(C(=O)OC2Cc3ccccc3C2)C(c2cccc3ccccc23)n2nnnc2N1 (centres unmarked)")
"74.8%"
>>> result("CCOC(=O)C1=C(C)Nc2nccn2C1c1cccc2ccccc12 (centres unmarked)")
"16.5%"
>>> result("CC1=C(C(=O)OCc2ccccc2)C(c2sccc2Br)n2nnnc2N1 (centres unmarked)")
"77.3%"
>>> result("CCOC(=O)C1=C(C)Nc2[nH]ncc2C1c1ccccc1-c1ccc(NS(C)(=O)=O)cc1 (centres unmarked)")
"30%"
>>> result("COCCOc1ccc(C2C(C(=O)OCc3ccccc3)=C(C)Nc3nnnn32)cc1 (centres unmarked)")
"20.3%"
>>> result("COc1ccc(C2C(C(=O)OCc3ccccc3)=C(C)Nc3nnnn32)c(OC)c1 (centres unmarked)")
"56.5%"
>>> result("CC1=C(C(=O)OCc2ccccc2)C(c2ccccc2-c2c(C)noc2C)n2nnnc2N1 (centres unmarked)")
"61%"
>>> result("CC1=C(C(=O)OCc2ccccc2)C(c2c(-c3ccc(C(=O)O)cc3)sc3ccccc23)n2nnnc2N1 (centres unmarked)")
"67.2%"
>>> result("CCOC(=O)C1=C(C)Nc2[nH]nc(C)c2C1c1cccc2ccccc12 (centres unmarked)")
"27.7%"
>>> result("CC1=C(C(=O)OCc2ccccc2)C(c2cc3ccccc3o2)n2nnnc2N1 (centres unmarked)")
"92%"
>>> result("CC1=C(C(=O)OCc2ccccc2)[C@@H](c2ccccc2-c2ccc(C(F)(F)F)cc2)n2nnnc2N1")
"68%"
>>> result("N#CC1=C(N)OC2=C(C(=O)CCC2)C1c1ccsc1 (centres unmarked)")
"-12.1%"
>>> result("CCOC(=O)C1=C(C)Nc2nnnn2C1c1ccccc1-c1cncnc1 (centres unmarked)")
"6.2%"
>>> result("N#CC1=C(N)OC2=C(C(=O)CC(c3ccccc3)C2)C1c1cccs1 (centres unmarked)")
"49.3%"
>>> result("CC1=C(C(=O)OCc2ccccc2)C(c2ccccc2-c2ccccc2C)n2nnnc2N1 (centres unmarked)")
"44.6%"
>>> result("CC1=C(C(=O)OCc2ccc(OC(F)(F)F)cc2)C(c2cccc3ccccc23)n2nnnc2N1 (centres unmarked)")
"9.1%"
>>> result("CC1=C(C(=O)OCc2ccccc2)C(c2c(Br)sc3ccccc23)n2nnnc2N1 (centres unmarked)")
"79.2%"
>>> result("CC1=C(C(=O)OCc2ccccc2)C(c2ccccc2-c2ccc(NS(C)(=O)=O)cc2)c2cn[nH]c2N1 (centres unmarked)")
"87.8%"
>>> result("CCOC(=O)C1=C(C)Nc2nnnn2C1c1cccc(OCc2ccc(C(=O)O)cc2)c1 (centres unmarked)")
"8.8%"
>>> result("CC1=C(C(=O)OCc2ccccc2)C(c2ccc(N(C)C)c3ccccc23)n2nnnc2N1 (centres unmarked)")
"63.6%"
>>> result("CCOC(=O)C1=C(C)NC(C)=C(C(=O)OCC)C1c1ccccc1Br")
"95.3%"
>>> result("CC1=C(C(=O)OCc2ccccc2)C(c2ccc(C(=O)O)cc2)n2nnnc2N1 (centres unmarked)")
"6.7%"
>>> result("CC(=O)c1ccc(-c2ccccc2C2C(C(=O)OCc3ccccc3)=C(C)Nc3nnnn32)cc1 (centres unmarked)")
"75.4%"
>>> result("CC1=C(C(=O)N2CCC(c3ccccc3)CC2)C(c2cccc3ccccc23)n2nnnc2N1 (centres unmarked)")
"22.2%"
>>> result("CCOC(=O)C1=C(C)N(Cc2nnn[nH]2)c2nnnn2C1c1cccc2ccccc12 (centres unmarked)")
"9.1%"
>>> result("N#CC1=C(N)OC2=C(C(=O)CC(c3ccccc3)C2)C1c1ccsc1 (centres unmarked)")
"44.9%"
>>> result("COc1ccc(C2C(C(=O)OCc3ccccc3)=C(C)Nc3[nH]ncc32)c2ccccc12 (centres unmarked)")
"13.1%"
>>> result("CCOC(=O)C1=C(C)Nc2[nH]nc(-c3ccc(C)cc3)c2C1c1cccc2ccccc12 (centres unmarked)")
"-3.2%"
>>> result("CCOC(=O)C1=C(C)Nc2[nH]ncc2C1c1ccc(N(C)C)c2ccccc12 (centres unmarked)")
"30.2%"
>>> result("CC1=C(C(=O)O[C@@H](C)c2ccccc2)C(c2ccc(N(C)C)c3ccccc23)n2nnnc2N1 (some centres unmarked)")
"72.4%"
>>> result("CCOC(=O)C1=C(C(F)(F)F)Nc2nnnn2C1c1cccs1 (centres unmarked)")
"30.7%"
>>> result("CCOC(=O)C1=C(C)Nc2nnnn2C1c1cccc(OCc2cccc(C(=O)O)c2)c1 (centres unmarked)")
"12.3%"
>>> result("CC1=C(C(=O)OCC2CC2)C(c2c(-c3ccc(C(=O)O)cc3)sc3ccccc23)n2nnnc2N1 (centres unmarked)")
"7.7%"
